- experiment_description: photoluminescence quantum yield (fraction); solvent given as SMILES
- condition_label: in CC#N
outcome_measure: photoluminescence quantum yield

> print(dat)
                    compound  endpoint.value
1  Nc1ccc2c(c1)-c1ccccc1C2=O           0.043

[1] COC(=O)[C@@]12N=N[C@@](C(=O)OC)(C3C4CCC(C4)C31)[C@@H]1CC12 (stereo partly specified)
[2] COc1cc(-c2nc3c4cccnc4c4ncccc4c3[nH]2)c(OC)cc1/C=C/c1nc2ccccc2[nH]1
Input line: Which of the two items, 1 and 2 , has the greater recorded photoluminescence quantum yield? Pick one; state its label.
Output line: 2
(2: 0.43, 1: 0.041)

[A] N#C/C(=C\c1ccc(C#N)cc1)c1nc(-c2ccc(Cl)cc2)cs1
[B] CC1=C2C3=C(CCc4ccccc43)C(C)=[N+]2[B-](F)(F)n2c(C)c3c(c21)-c1ccccc1CC3
Input line: Which of the two items, A and B , has the greater recorded photoluminescence quantum yield? Pick one; state its label.
Output line: B
(B: 0.38, A: 0.18)

[A] CC1(C)CC(/N=C/c2ccc3ccc4cccc5ccc2c3c45)CC(C)(C)N1[O]
[B] N#Cc1cc2ccccc2oc1=N
Input line: Which of the two items, A and B , has the greater recorded photoluminescence quantum yield? Pick one; state its label.
Output line: A

[I] COc1ccccc1-n1nc(C#N)c(N2CCCC2)n1
[II] C=CCNc1ccc2ccc3oc4cc(=O)ccc-4nc3c2c1
Input line: Which of the two items, I and II , has the greater recorded photoluminescence quantum yield? Pick one; state its label.
Output line: I

* * *

- experiment_description: photoluminescence quantum yield (fraction); solvent given as SMILES
- condition_label: in CC#N
outcome_measure: photoluminescence quantum yield

Record excerpt, results attached:
> print(dat)
                                   compound  endpoint.value
1  COc1ccccc1C1=C2C(C)=CC(C)=[N+]2[B-](F)(F)n2c(C)cc(C)c21            0.57
2       Cc1ccc(-c2ccc(/C=C/c3cccn3C)cn2)nc1           0.087
3  CN(C)c1ccc2c3c(c(=O)oc2c1)C=c1cc2c(cc1O3)=[N+](CCC(=O)O)CCC2           0.242
4  CCOC(=O)c1ccccc1-c1c2ccc(=O)cc-2oc2cc(OC(=O)[C@H](CO[Si](C)(C)C(C)(C)C)NC(=O)OC(C)(C)C)ccc12           0.003
5  COc1ccc2c(c1)c1c(c3cc(OC)ccc32)=[N+]2C(=C(c3c(C)cc(C)cc3C)c3cc4c5cc(OC)ccc5c5ccc(OC)cc5c4n3[B-]2(F)F)C=1            0.01

[1] COc1ccc2c(c1)-c1cc(OC)ccc1C2=O
[2] O=C1c2ccccc2C2=Cc3ccccc3B(O)N12
Input line: Between 1 and 2 , which one shows the smaller photoluminescence quantum yield number? Pick one; state its label.
Output line: 1
(1: 0.028, 2: 0.97)

* * *

- experiment_description: photoluminescence quantum yield (fraction); solvent given as SMILES
- condition_label: in CN(C)C=O
outcome_measure: photoluminescence quantum yield

Record excerpt, results attached:
molecule	endpoint_value
Cc1ccc(-c2ccc(/C=C/c3cccn3C)cn2)nc1	0.19
CCCCCCC(CCCCCC)N1C(=O)c2cccc3c(-c4ccccc4)ccc(c23)C1=O	0.74
COc1ccc(-c2c3ccccc3c3n2[B-](F)(F)[N+]2=Cc4c5ccccc5c(-c5ccc(OC)cc5)n4[B-](F)(F)[N+]2=C3)cc1	0.23
CN(C)c1ccc(C2=Cc3c4ccccc4cc[n+]3[B-](F)(F)O2)cc1	0.561
CCCCCCC(CCCCCC)N1C(=O)c2cccc3c(-c4ccc(N(C)C)cc4)ccc(c23)C1=O	0.0037
Nc1ccc2c3cccc4cccc(c5cccc1c52)c43	0.56
CCn1c2cc(C(C)(C)C)ccc2c2c3nsnc3c3c4ccc(C(C)(C)C)cc4n(CC)c3c21	0.07
CCn1c2ccccc2c2cc(-c3cc(-c4ccc5c(c4)c4ccccc4n5CC)nc(-c4ccc(OC)cc4)n3)ccc21	0.68
Cc1nc2cccc(-c3nc4ccccc4o3)c2c(=O)[nH]1	0.392
CN(C)c1ccc(/C=C/c2nc3c4ccccc4c4ccccc4c3[nH]2)cc1	0.04

[I] O=C1/C(=C2\Sc3ccc(S(=O)(=O)O)cc3C2=O)Sc2ccc(S(=O)(=O)O)cc21
[II] COC(=O)C(N)Cc1ccc(O[Si]2(Oc3ccc(CC(N)C(=O)OC)cc3)n3c4c5ccccc5c3/N=C3N=C(/N=c5/c6ccccc6/c(n52)=N/C2=NC(=N\4)/c4ccccc42)c2ccccc2\3)cc1 (stereo not drawn)
[III] O=C(O)c1c2ccccc2c(C(=O)O)c2ccccc12
[IV] Cc1ccc([C@@H]2C[C@](O)(c3ccccn3)C[C@](O)(c3ccccn3)[C@H]2C(=O)c2ccc(N(c3ccccc3)c3ccccc3)cc2)cc1
[V] O=C(c1ccc(N(c2ccccc2)c2ccccc2)cc1)[C@H]1[C@H](c2ccc(F)cc2)C[C@](O)(c2ccccn2)C[C@]1(O)c1ccccn1
Input line: Sort these molecules on photoluminescence quantum yield so the largest reading comes first. List the labels according to the requested ordering.
Output line: III, I, II, IV, V

This collection of values is drawn from the Deep4Chem optical property database.
